# targetDesc: Dual specificity tyrosine-phosphorylation-regulated kinase 1A (Homo sapiens)
# assayExplanation: Kinase Assay: The DYRK1A kinase assay was run using the Ser/Thr 18 peptide Z-lyte assay kit according to manufacturer's instructions (Life Technologies—a Division of Thermo-Fisher). This is a non-radioactive assay using fluorescence resonance energy transfer (FRET) between coumarin and fluorescein to detect kinase activity which is represented as a ratio of coumarin emission/fluorescein emission.Briefly, recombinant DYRK1A kinase, ATP and Ser/Thr peptide 18 were prepared in 1× Kinase buffer to final concentrations of 0.19 μg/mL, 30 μM, and 4 μM respectively. The mixture was allowed to incubate with the representative compounds for one hour at room temperature. All reactions were performed in duplicate. Unphosphorylated (“0% Control”) and phosphorylated (“100% control”) forms of Ser/Thr 18 served as control reactions. Additionally, an 11-point dose-response curve of Staurosporine (1 uM top) was run to serve as a positive compound control.
valueKind: pEC50
Answers are plain numbers, as −log10 of the molar value.

Some solved cases for reference:
INSERT INTO measurements (structurestring, targetdesc, valuekind, quantitativereadout) VALUES
  ('CN1CCCCN(C)c2nccc3[nH]c(nc23)-c2n[nH]c3ccc(cc23)-c2cncc(c2)C1', 'Dual specificity tyrosine-phosphorylation-regulated kinase 1A (Homo sapiens)', 'pEC50', 8.70),
  ('O=C1CCc2cccc(c2)-c2cncc3[nH]c(nc23)-c2n[nH]c3ccc(cc23)-c2cncc(c2)N1', 'Dual specificity tyrosine-phosphorylation-regulated kinase 1A (Homo sapiens)', 'pEC50', 8.00),
  ('O=C1COc2cccc(c2)-c2cncc3[nH]c(nc23)-c2n[nH]c3ccc(cc23)-c2cncc(c2)N1', 'Dual specificity tyrosine-phosphorylation-regulated kinase 1A (Homo sapiens)', 'pEC50', 8.30),
  ('c1cc2cc(c1)-c1cncc3[nH]c(nc13)-c1n[nH]c3ccc(cc13)-c1cncc(c1)CNC2', 'Dual specificity tyrosine-phosphorylation-regulated kinase 1A (Homo sapiens)', 'pEC50', 8.52);

Query "O=C1CCc2cccc(c2)-c2cncc(c2)NC(=O)c2n[nH]c3ccc(cc23)-c2cncc(c2)CN1" yields pEC50 of 8.05
